assay_details: Caspase-3/7 induction in HepG2 cells by small molecules, qHTS assay (AID 1346978); also: nearly all actives have a fitted effect of over 15% in size; also: potency is read from the fitted curve at half-maximal effect
run_conditions: HepG2 caspase-3/7 activation, Caspase-Glo luminescence, 17 h; series mostly up to 92.4 µM
Results filed as inconclusive are left out. Activity calls are given as the source filed them. Calls follow the shape of the dose curve; as a rule, active = well fitted activation curve with a large enough effect in the repeat runs; inconclusive = weak or mixed curves; inactive = flat fitted curve, though single readings scatter.
property_measured: Potency

Below: 4 compounds and their reported Potency.
O=c1[nH]cnc2nc[nH]c12 : inactive
Cc1onc(-c2ccccc2Cl)c1C(=O)N[C@@H]1C(=O)N2[C@@H]1SC(C)(C)[C@@H]2C(=O)O : inactive
S=c1[nH]c2ccccc2s1 : inactive
C1CCCC1 : inactive

Kindly consider the entry below.
Exam item: Suppose we examine the compound CCCCc1oc2ccc(NS(C)(=O)=O)cc2c1C(=O)c1ccc(OCCCN(CCCC)CCCC)cc1 ; what Potency value has been reported?
Marked response: 18.8 µM (active)

###

assay_details: Caspase-3/7 induction in HepG2 cells by small molecules, qHTS cell viability counter screen (AID 1346981); also: nearly all actives have a fitted effect of over 30% in size
run_conditions: CellTiter-Fluor fluorescence, 17 h; series mostly up to 92.4 µM
Records with an inconclusive call do not appear. Calls of active or inactive are those of the source. The call rests on the fitted dose curve; in most records, active means well fitted cell-killing curve with a large enough effect in the repeat runs; inconclusive means weak or mixed curves, or effect the other way; inactive means flat fitted curve, though single readings scatter.
Select the matching outcome among 1 (yes) for active, 0 (no) for inactive

COc1ccc(-c2ccc3cc(C(=O)O)ccc3c2)cc1C12CC3CC(CC(C3)C1)C2 : 0 (no)

Exam item: Which outcome was entered for the molecule C=CC(=O)OCCn1c(=O)n(CCOC(=O)C=C)c(=O)n(CCOC(=O)C=C)c1=O in this test?
Marked response: 1 (yes)

Exam item: Which outcome was entered for the molecule CCN(CC)CCNC(=O)c1c(C)[nH]c(/C=C2\C(=O)Nc3ccc(F)cc32)c1C in this test?
Marked response: 1 (yes)

Exam item: Which outcome was entered for the molecule Cc1ccc(O)c(C(C)(C)C)c1 in this test?
Marked response: 0 (no)

Exam item: Which outcome was entered for the molecule O=C1CCCCCN1SSN1CCCCCC1=O in this test?
Marked response: 0 (no)

Exam item: Which outcome was entered for the molecule CN(C)CCCOC1(Cc2ccccc2)CCCCCC1 in this test?
Marked response: 0 (no)

###

assay_details: qHTS assay to identify small molecule antagonists of the estrogen receptor alpha (ER-alpha) signaling pathway - cell viability counter screen (AID 743074);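 also: HEK293 cells carrying ER-alpha-UAS-bla reporter stimulated with 17beta-estradiol; nearly all actives have a fitted effect of over 45% in size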
run_conditions: ERalpha-bla HEK293 viability, CellTiter-Glo luminescence, 18 h; series mostly up to 69.4 µM
Records with an inconclusive call do not appear. The source made the active and inactive calls. The call rests on the fitted dose curve.
Select the matching outcome among active, inactive

CCN(C(=O)N(CC)c1ccccc1)c1ccccc1 : inactive
c1cc(C(c2ccc(OCC3CO3)cc2)c2ccc(OCC3CO3)cc2)ccc1OCC1CO1 (stereo unspecified) : inactive
OCCCCCCCCCCCCBr : inactive
CC(NN)c1ccccc1 (stereo unspecified) : inactive
C=CC(=O)OCC(CO)(COCC(COC(=O)C=C)(COC(=O)C=C)COC(=O)C=C)COC(=O)C=C : active
CC(C)(C)C(=O)OCOC(=O)[C@@H]1N2C(=O)[C@@H](NC(=O)[C@H](N)c3ccccc3)[C@H]2SC1(C)C : inactive
O=C(NO)C1(NS(=O)(=O)c2ccc(Oc3ccc(F)cc3)cc2)CCOCC1 : inactive
CCCCCCCCCCCC(=O)NCCCN(C)C : active

Exam item: Which outcome was entered for the molecule CCCCN(CCCC)C(=O)N(CCCC)CCCC in this test?
Marked response: inactive

Exam item: Which outcome was entered for the molecule O=C(Nc1cccc([N+](=O)[O-])c1)c1cc2ccccc2cc1O in this test?
Marked response: active

Exam item: Which outcome was entered for the molecule NC(=O)NS(=O)(=O)c1ccc(N)cc1 in this test?
Marked response: inactive

###

assay_details: qHTS assay to identify small molecule antagonists of the farnesoid-X-receptor (FXR) signaling pathway - cell viability counter screen (AID 743221); also: nearly all actives have a fitted effect of over 50% in size
run_conditions: FXR-bla HEK293T viability, CellTiter-Glo luminescence, 16 h; series mostly up to 62.6 µM
Inconclusive results are not listed. The source made the active and inactive calls. Calls come from the whole dose curve; as a rule, active = well fitted cell-killing curve with a large enough effect in the repeat runs (not every such curve was filed as active); inconclusive = weak or mixed curves, or effect the other way; inactive = no such curve, though single readings can be large or run the other way.
Select the matching outcome among 1 (active), -1 (inactive)

Field: example entries. Status: answers known.
CC1=C(C(=O)OC(C)C)C(c2cccc([N+](=O)[O-])c2)C(C(=O)OC2CN(C(c3ccccc3)c3ccccc3)C2)=C(N)N1 (centres undefined) : 1
CCCCCCCCCCC=O : -1
CCOC(=O)O[C@H](C)OC(=O)c1ccc2c(c1)cc(C(=O)NC1CCN(C(C)C)CC1)n2Cc1cc(-c2ccc(Cl)s2)on1 : 1
CN(C)c1ccc(SC#N)cc1 : -1
Cc1cccc(CN2CCN(C(c3ccccc3)c3ccc(Cl)cc3)CC2)c1 (centres undefined) : -1

Exam item: Which outcome was entered for the compound O=c1[nH]sc2ccccc12 in this test?
Marked response: 1

###

assay_details: A CellTox Green Cytotoxicity Assay to monitor cytotoxicity in HEK293 cells - 40 hour (AID 1224871); also: nearly all actives have a fitted effect of over 45% in size
run_conditions: CellTox Green fluorescence; series mostly up to 76.8 µM
Inconclusive results are not listed. The source made the active and inactive calls. Calls come from the whole dose curve; as a rule, active = well fitted activation curve with a large enough effect in the repeat runs; inconclusive = weak or mixed curves; inactive = flat fitted curve, though single readings scatter.
Select the matching outcome among active, inactive

Field: example entries. Status: answers known.
CSc1cnc(C)cn1 : active
CCOC(=O)O[C@]1(C(=O)OCCl)CC[C@H]2[C@@H]3CCC4=CC(=O)C=C[C@]4(C)[C@H]3[C@@H](O)C[C@@]21C : inactive
CC(C)(C)C(=O)OCOC(=O)C1N2C(=O)CC2S(=O)(=O)C1(C)C (centres undefined) : inactive
[O-][n+]1ccccc1SSc1cccc[n+]1[O-] : active
Cc1cc(O)c(C(C)(C)C)cc1Sc1cc(C(C)(C)C)c(O)cc1C : active
Clc1ccc2cc3ccccc3cc2c1 : inactive

Exam item: Which outcome was entered for the molecule CC(C)c1ccc2c(c1)CC[C@H]1[C@](C)(CN)CCC[C@]21C in this test?
Marked response: active

Exam item: Which outcome was entered for the molecule CCCCCCCCNC(C)C(O)c1ccc(SC(C)C)cc1 (centres undefined) in this test?
Marked response: active

Exam item: Which outcome was entered for the molecule CCCCCCCCCCCCCCCC[N+](C)(C)CCN(Cc1ccc(OC)cc1)c1ncccn1 in this test?
Marked response: active

###

assay_details: qHTS assay for identifying genotoxic compounds that show differential cytotoxicity against isogenic chicken DT40 cell lines with known DNA damage response pathways - Rev3 mutant cell line (AID 743014); also: nearly all actives have a fitted effect of over 55% in size
run_conditions: chicken DT40 Rev3-/- viability, CellTiter-Glo, 40 h; series mostly up to 68.4 µM
Results filed as inconclusive are left out. Active and inactive are the calls of the source. Calls come from the whole dose curve; as a rule, active = well fitted cell-killing curve with a large enough effect in the repeat runs; inconclusive = weak or mixed curves, or effect the other way; inactive = no such curve, though single readings can be large or run the other way.
Select the matching outcome among TRUE for active, FALSE for inactive

ON=C1CCCC1 : FALSE
CCCCCCCC[N+](CCCCCCCC)(CCCCCCCC)CCCCCCCC : TRUE

Exam item: Which outcome was entered for the compound NNc1nc(-c2ccccc2)cs1 in this test?
Marked response: FALSE

Exam item: Which outcome was entered for the compound CC(C)(C)c1ccc(C(=O)O)cc1 in this test?
Marked response: FALSE

###

assay_details: qHTS assay to identify small molecule agonists of the endoplasmic reticulum stress response signaling pathway - cell viability counter screen (AID 1159517); also: nearly all actives have a fitted effect of over 50% in size; also: potency is read from the fitted curve at half-maximal effect
run_conditions: ESRE-bla HeLa viability, CellTiter-Glo luminescence, 5 h; series mostly up to 61 µM
Results filed as inconclusive are left out. The source made the active and inactive calls. The call rests on the fitted dose curve.
property_measured: Potency

Below: 10 compounds and their reported Potency.
c1ccc(CSCc2ccccc2)cc1 : inactive
NNc1nc(-c2ccccc2)cs1 : inactive
O=c1[nH]sc2ccccc12 : 54.9 µM (active)
O=C(Nc1cccc(C(F)(F)F)c1)c1cc(Br)cc(Br)c1O : 24.5 µM (active)
O=[N+]([O-])c1ccccc1Nc1ccccc1 : inactive
Oc1cccc(-c2c3nc(c(-c4cccc(O)c4)c4ccc([nH]4)c(-c4cccc(O)c4)c4nc(c(-c5cccc(O)c5)c5ccc2[nH]5)CC4)C=C3)c1 : inactive
CCCCCCCCCCCC[N+](C)(C)CCCCCCCCCCCC : 43.6 µM (active)
CC(C)C(C)(C)C(C)(C)C(C)(C)S : inactive
C1CCCC1 : inactive
Nc1ccc2cc(S(=O)(=O)O)cc(O)c2c1N=Nc1ccccc1C(F)(F)F : inactive

Exam item: Suppose we examine the compound NNc1nc(-c2ccc(N)cc2)cs1 ; what Potency value has been reported?
Marked response: inactive

###

assay_details: qHTS assay to identify small molecule agonists of the vitamin D receptor (VDR) signaling pathway - cell viability counter screen (AID 743224); also: nearly all actives have a fitted effect of over 50% in size
run_conditions: VDR-bla HEK293T viability, CellTiter-Glo luminescence, 16 h; series mostly up to 62.6 µM
Inconclusive results are not listed. Active and inactive are the calls of the source. Calls come from the whole dose curve; as a rule, active = well fitted cell-killing curve with a large enough effect in the repeat runs; inconclusive = weak or mixed curves, or effect the other way; inactive = no such curve, though single readings can be large or run the other way.
Select the matching outcome among Y (active), N (inactive)

Field: example entries. Status: answers known.
Cc1cc(O)c(C(C)(C)C)cc1C(C)(C)C : Y
CCCCCCCC/C=C\CCCCCCCCOCCO : Y
COc1ccc(-c2ccc3cc(C(=O)O)ccc3c2)cc1C12CC3CC(CC(C3)C1)C2 : Y
C[C@H](CCC(=O)O)[C@H]1CC[C@H]2[C@@H]3CC[C@@H]4C[C@H](O)CC[C@]4(C)[C@H]3CC[C@]12C : Y
CCOC(=O)O[C@]1(C(=O)OCCl)CC[C@H]2[C@@H]3CCC4=CC(=O)C=C[C@]4(C)[C@H]3[C@@H](O)C[C@@]21C : N
CC(C)(C)CC(C)(C)c1ccc(O)c(Cc2ccc(Cl)cc2Cl)c1 : Y
CN1CCN(CCC(=O)N2c3ccccc3Sc3ccc(C(F)(F)F)cc32)CC1 : Y
CCCCc1oc2ccc(NS(C)(=O)=O)cc2c1C(=O)c1ccc(OCCCN(CCCC)CCCC)cc1 : Y

Consider the additional molecule presented here.
Exam item: Which outcome was entered for the molecule O=[N+]([O-])c1cc([N+](=O)[O-])c2ccc(S(=O)(=O)O)cc2c1O in this test?
Marked response: N
